test_target: Chromo domain-containing protein 1 (Saccharomyces cerevisiae (strain ATCC 204508 / S288c) (Baker's yeast)) (UniProt P32657)
Sequence (P32657 whole entry, the tested form may be a part): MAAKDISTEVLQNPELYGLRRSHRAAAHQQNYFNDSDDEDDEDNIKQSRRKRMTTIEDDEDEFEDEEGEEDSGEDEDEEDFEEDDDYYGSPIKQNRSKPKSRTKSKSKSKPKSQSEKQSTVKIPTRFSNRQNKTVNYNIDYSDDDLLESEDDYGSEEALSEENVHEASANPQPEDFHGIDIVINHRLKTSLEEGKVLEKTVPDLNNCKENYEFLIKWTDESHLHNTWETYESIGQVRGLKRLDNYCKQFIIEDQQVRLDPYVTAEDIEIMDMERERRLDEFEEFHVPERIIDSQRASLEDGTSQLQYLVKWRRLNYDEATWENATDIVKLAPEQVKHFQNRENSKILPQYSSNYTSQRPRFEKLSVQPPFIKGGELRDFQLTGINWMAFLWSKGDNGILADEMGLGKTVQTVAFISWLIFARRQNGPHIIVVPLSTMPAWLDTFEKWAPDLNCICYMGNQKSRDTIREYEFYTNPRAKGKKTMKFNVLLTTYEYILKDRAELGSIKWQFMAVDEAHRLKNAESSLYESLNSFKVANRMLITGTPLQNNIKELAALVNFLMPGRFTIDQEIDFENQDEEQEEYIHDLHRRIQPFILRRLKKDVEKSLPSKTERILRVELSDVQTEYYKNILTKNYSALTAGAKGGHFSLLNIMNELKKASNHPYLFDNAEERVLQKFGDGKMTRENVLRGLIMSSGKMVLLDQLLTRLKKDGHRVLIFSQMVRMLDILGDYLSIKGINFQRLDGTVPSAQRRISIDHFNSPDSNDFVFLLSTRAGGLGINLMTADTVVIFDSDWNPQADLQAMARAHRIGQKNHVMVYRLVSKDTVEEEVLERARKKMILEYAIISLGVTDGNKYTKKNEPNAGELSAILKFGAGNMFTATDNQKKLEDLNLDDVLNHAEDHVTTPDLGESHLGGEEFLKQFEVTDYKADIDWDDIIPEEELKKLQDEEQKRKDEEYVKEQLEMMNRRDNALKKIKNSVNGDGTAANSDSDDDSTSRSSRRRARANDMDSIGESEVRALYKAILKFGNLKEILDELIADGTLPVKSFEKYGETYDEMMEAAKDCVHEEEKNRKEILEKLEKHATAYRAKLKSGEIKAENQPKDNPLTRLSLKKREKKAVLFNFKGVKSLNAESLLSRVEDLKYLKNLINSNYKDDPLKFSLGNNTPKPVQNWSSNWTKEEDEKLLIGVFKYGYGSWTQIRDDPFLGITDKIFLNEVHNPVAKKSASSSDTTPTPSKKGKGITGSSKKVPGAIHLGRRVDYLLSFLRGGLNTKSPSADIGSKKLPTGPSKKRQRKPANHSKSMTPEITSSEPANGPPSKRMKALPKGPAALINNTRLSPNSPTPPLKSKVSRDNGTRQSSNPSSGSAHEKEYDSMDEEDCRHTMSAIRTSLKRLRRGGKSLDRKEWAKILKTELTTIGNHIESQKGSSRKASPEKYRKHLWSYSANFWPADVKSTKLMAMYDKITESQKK
assay_notes: ScCHD-1 Enzyme Inhibition Assay
Assay type: functional
Parameters: scale not given: in the data most compounds retested in dose-response had high values
condition_description: 30 µM
test_readout: Percent Effect (%)
Give the value in % but do not write % after it.

Req: For the molecule shown here, CCc1noc(C(C)N2CCN(c3ccc(C#N)cc3F)CC2)n1 (configuration not stated) , give the reported Percent Effect.
Resp: -4.69

Req: I'd like to know its Percent Effect. The molecule in question is `COc1ccc(C[C@H]2CN(C(=O)CN(C)C)CC[C@H]2OC)cc1`
Resp: -0.592

Req: So what's the measured Percent Effect for this one? CC(NC(=O)CCc1cccs1)c1nnc2n1CCC2 (configuration not stated)
Resp: 1.69

Req: Quick one: Percent Effect of COCCOc1cccc(C(=O)N2CCCC(n3ccnc3C)C2)c1 (configuration not stated) ?
Resp: -12.3

Req: Find the recorded Percent Effect belonging to `COc1ncc(C2(O)CCN(Cc3ccccc3O)CC2)c(OC)n1` and report it.
Resp: -23.4

Req: Tell me the measured Percent Effect of c1csc(CN2CCOCC3(CCN(C4CCOCC4)C3)C2)n1 (configuration not stated) , please.
Resp: -0.251

Req: Find the recorded Percent Effect belonging to `c1ccc2cc(OCCN3CCn4c(nnc4C4CC4)C3)ccc2c1` and report it.
Resp: -10.9

Req: Value lookup for Percent Effect; key = `COCCNC(=O)c1ccc(C)c(-n2cccc2)c1`
Resp: -3.58

Req: For the molecule `Cc1ncccc1OC1(C(=O)NCCNc2ccccc2)CCNCC1` , what Percent Effect is on record?
Resp: -4.02

Req: Would you kindly share the measured Percent Effect for O=C(NCCCNCC1CNc2ccnn2C1)c1ccccc1 (configuration not stated) ?
Resp: -3.29

Req: Data request, read-out Percent Effect, for `Cc1nc(C)c(C(=O)NCCNC(=O)c2ccc(F)cc2F)s1`
Resp: -8.6

Req: Query: Percent Effect; subject: O=C(NCCCn1ccnc1)N1CCCC1c1cccs1 (configuration not stated)
Resp: -5.02

Req: Recorded Percent Effect for Cc1nc(C2CCCN(C(=O)c3ccc(OCC4CC4)cc3)C2)no1 (configuration not stated) , please?
Resp: -8.85

Req: Quick one: Percent Effect for Cc1cc(C(=O)NCCN2CCCC(C)C2)nn1C (configuration not stated) ?
Resp: -0.528

Req: Reported Percent Effect, molecule `CCN1CCN(c2ccc(CNC(=O)c3c(C)noc3C)cn2)CC1` : ____
Resp: -14.6

Req: Reported Percent Effect, molecule `Cn1c(C2CC2)nc2c1CCN(CC(=O)Nc1nncs1)C2` : ____
Resp: -5.21

Req: I'd like to know its Percent Effect. The molecule in question is O=S(=O)(CCCN1CCCC1Cn1cncn1)c1ccccc1 (configuration not stated)
Resp: -10.1

Req: Return reported Percent Effect; argument: `COc1cc(CNCc2c(C)nn(C)c2N(C)C)ccn1`
Resp: -11.1

Req: Sample Cc1nc(CN2CCCC(NCc3ccsc3)C2)no1 (configuration not stated) — what was its Percent Effect?
Resp: -8.54

Req: Quick check: Percent Effect of c1ncn(CC2CN(Cc3csc(C4CCCC4)n3)CCO2)n1 (configuration not stated) ?
Resp: -9.07

Req: Which Percent Effect value is on record for O=C(CN1CCOC(Cn2cccn2)C1)Nc1nncs1 (configuration not stated) ?
Resp: -22.6

Req: Requested read-out: Percent Effect. Entry: `CN1CCN(C2CCN(CC(=O)NCC(F)(F)F)CC2)C1=O`
Resp: -3.32

Req: What value of Percent Effect has been recorded for this entry: `CCOC1CCN(C(=O)c2cnn(-c3ccccc3Cl)c2)CC1`
Resp: -0.798

Req: Returns the measured Percent Effect for the input molecule. Input: NCC(=O)N1CCCC(c2cncc(Nc3ncccn3)n2)C1 (configuration not stated)
Resp: 2.63

Req: Quick one: Percent Effect for FC(F)(F)Cc1noc(CN2CCCC2c2noc(C3CC3)n2)n1 (configuration not stated) ?
Resp: -9.28

Req: Find the recorded Percent Effect belonging to `Cc1nc(CCC(=O)NC2CCC2)cc(C2CCNCC2)n1` and report it.
Resp: -7.72

Req: Could you tell me which Percent Effect is on file for Cc1nc(C)n(CC2CN(CCOc3ccccc3F)CCO2)n1 (configuration not stated) ?
Resp: -2.97

# credit: ChEMBL document CHEMBL3988442
